The origin of these recorded values is PubChem BioAssay AID1159580.

# protocol: chemical genetic growth profiling, strain panel (AID 1159580);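 also: tested at 20 µM; growth read once vehicle control cultures reached saturation at 30 °C; 1 = growth at the plate median or of vehicle wells; lower values mean less growth of the strain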
# test-settings: S. cerevisiae deletion strains, growth OD, locus YDL028C, strain MPS1, active compounds read low
Screen size: about 5,500 compounds; about 2,000 (36%) were called active. Roughly 18% stayed inconclusive and do not appear here. This is one part of the list.
Known normalized growth of a selection of compounds
Give your answer as a number; write no unit.

{"compound": "Clc1cccc(Cl)c1C1CC(c2ccccc2)=Nc2ccccc2S1 (stereo unspecified)", "property-measured": "normalized growth", "quantitative-result": 0.99}
{"compound": "CC(C)(C)NC(=S)N/N=C\\c1cc(Br)c(O)c(Br)c1", "property-measured": "normalized growth", "quantitative-result": 0.967}
{"compound": "N/C(=N/OC(=O)c1ccc([N+](=O)[O-])cc1)c1c(Cl)cccc1Cl", "property-measured": "normalized growth", "quantitative-result": 0.948}
{"compound": "OC(COCc1ccccc1)Cn1c2ccccc2c2ccccc21 (stereo unspecified)", "property-measured": "normalized growth", "quantitative-result": 0.951}
{"compound": "Cc1cc(Br)c(O)c(/C=N\\NC(=S)NC(C)(C)C)c1", "property-measured": "normalized growth", "quantitative-result": 0.972}
{"compound": "N#Cc1nccnc1N1CCN(C(=O)Nc2cc(Cl)cc(Cl)c2)CC1", "property-measured": "normalized growth", "quantitative-result": 0.965}
{"compound": "CCCCCCCCCCCCSc1ncn[nH]1", "property-measured": "normalized growth", "quantitative-result": 0.976}
{"compound": "N/C(=N/OC(=O)c1cnn(-c2ccc([N+](=O)[O-])cc2)c1C(F)(F)F)c1ccc(Cl)cc1", "property-measured": "normalized growth", "quantitative-result": 0.985}

Query block: Sample COc1ccc(Br)c(C(=O)/C(C#N)=C/c2cccs2)c1 — what was its normalized growth?
Result block: 0.909

Query block: # lookup: normalized growth of CN1/C(=C/C=C/c2ccc3ccccc3[n+]2C)C=Cc2ccccc21
Result block: 0.928

Query block: Given CCOC(=O)NC(=S)Nc1ccc(C(C)(C)C)cc1NC(=S)NC(=O)OCC , state its recorded normalized growth.
Result block: 0.979
